Sourced from patent US20250034116A1

SYSTEM_UNDER_TEST: recombinant CYP4A11 (rCYP4A11) (Homo sapiens (Human))
Sequence (Q02928 5-519): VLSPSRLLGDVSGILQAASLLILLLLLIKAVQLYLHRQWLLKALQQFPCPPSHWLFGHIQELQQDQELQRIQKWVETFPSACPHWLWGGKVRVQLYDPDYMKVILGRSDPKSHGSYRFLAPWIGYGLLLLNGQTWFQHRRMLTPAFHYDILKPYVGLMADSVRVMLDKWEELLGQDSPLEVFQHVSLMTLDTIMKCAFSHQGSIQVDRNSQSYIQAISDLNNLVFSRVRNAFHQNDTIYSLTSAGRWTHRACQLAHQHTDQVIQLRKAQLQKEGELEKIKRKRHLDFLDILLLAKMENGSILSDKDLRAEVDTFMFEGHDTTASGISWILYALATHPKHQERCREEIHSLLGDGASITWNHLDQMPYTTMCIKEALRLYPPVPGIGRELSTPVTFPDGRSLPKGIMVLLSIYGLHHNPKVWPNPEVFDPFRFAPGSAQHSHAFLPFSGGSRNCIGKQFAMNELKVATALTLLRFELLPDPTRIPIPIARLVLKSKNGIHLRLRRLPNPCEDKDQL
MEASUREMENT_DESCRIPTION: Inhibition of 20-HETE production by recombinant CYP4A11
Type: biochemical
MEASURED_PARAMETER: IC50 (nM)

STRUCTURE_SMILES: O=C1CCCN1CC1CCN(c2ccc(-c3cn[nH]c3)cc2F)CC1
IC50, nM: 33.2
--
STRUCTURE_SMILES: O=C1CCCN1CC1CCN(c2ccc(-c3cn[nH]c3)c(F)c2F)CC1
IC50, nM: 53.7
--
STRUCTURE_SMILES: O=C1CCCN1CC1CCN(c2c(F)cc(-c3cn[nH]c3)cc2F)CC1
IC50, nM: 39.6

---

SYSTEM_UNDER_TEST: recombinant CYP4F2 (rCYP4F2) (Homo sapiens (Human))
Sequence (P78329 5-520): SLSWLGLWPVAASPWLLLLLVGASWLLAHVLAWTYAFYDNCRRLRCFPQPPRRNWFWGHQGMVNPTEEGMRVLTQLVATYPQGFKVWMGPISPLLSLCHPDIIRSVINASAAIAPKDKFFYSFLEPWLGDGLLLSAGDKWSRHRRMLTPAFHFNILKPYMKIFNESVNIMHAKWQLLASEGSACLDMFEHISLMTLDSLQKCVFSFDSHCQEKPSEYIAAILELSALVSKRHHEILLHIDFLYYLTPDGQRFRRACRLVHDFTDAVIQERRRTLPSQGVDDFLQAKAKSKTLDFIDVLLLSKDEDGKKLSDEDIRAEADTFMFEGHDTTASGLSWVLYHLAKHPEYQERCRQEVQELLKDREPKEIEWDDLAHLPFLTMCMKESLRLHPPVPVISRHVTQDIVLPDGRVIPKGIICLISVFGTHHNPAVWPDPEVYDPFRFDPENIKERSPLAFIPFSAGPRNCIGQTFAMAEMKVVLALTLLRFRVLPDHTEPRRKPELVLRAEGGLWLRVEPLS
MEASUREMENT_DESCRIPTION: Inhibition of 20-HETE production by recombinant CYP4F2
Assay type: biochemical
Experimental: Experimental principle: The inhibitory activity of 20-HETE production is evaluated by testing the inhibitory effects of the compound on human liver microsomes (HLM), rat liver microsomes (RLM), mouse liver microsomes (MLM), or […] CYP4 subtype enzymes (CYP4F2). […]
MEASURED_PARAMETER: IC50 (nM)

COMPOUND: O=C1CCCN1CC1CCN(c2ccc(-c3cn[nH]c3)cc2F)CC1 [Compound 2]
IC50 (nM): 15.8
--
COMPOUND: O=C1CCCN1CC1CCN(c2c(F)cc(-c3cn[nH]c3)cc2F)CC1 [Compound 5]
IC50 (nM): 24.9
--
COMPOUND: O=C1CCCN1CC1CCN(c2ccc(-c3cn[nH]c3)cc2)CC1 [Compound 1]
IC50 (nM): 24
--
COMPOUND: O=C1CCCN1CC1CCN(c2ccc(-c3cn[nH]c3)c(F)c2F)CC1 [Compound 4]
IC50 (nM): 18.8

---

Tested on: CYP enzymes in mouse liver microsomes (MLM)
MEASUREMENT_DESCRIPTION: Inhibition of 20-HETE production in mouse liver microsomes (MLM)
Assay type: biochemical
MEASURED_PARAMETER: IC50 (nM)

COMPOUND: O=C1CCCCN1CC1CCN(c2ccc(-c3cn[nH]c3)c(F)c2F)CC1 [Compound 26]
IC50, nM: 1670
--
COMPOUND: O=C1CCCCN1CC1CCN(c2c(F)cc(-c3cn[nH]c3)cc2F)CC1 [Compound 27]
IC50, nM: 1150
--
COMPOUND: O=C1CCCCN1CC1CCN(c2ccc(-c3cn[nH]c3)cc2)CC1 [Compound 25]
IC50, nM: 766

[A] O=C1CCCN1CC1CCN(c2ccc(-c3cn[nH]c3)c(F)c2F)CC1 [Compound 4]
[B] C[C@@H]1CN(c2ccc(-c3cn[nH]c3)c(F)c2F)CCN1C(=O)N1CCCC1 [Compound 103]
[C] CC1CN(c2ccc(-c3cn[nH]c3)cc2F)CC(C)N1C(=O)N1CCCC1 (stereo not shown) [Compound 130]
Req: Kindly order the items shown according to IC50, from the highest value down. # respond with the labels, arranged in the requested order
Resp: A, B, C
(A: 1350 nM, B: 743 nM, C: 414 nM)

---

System: CYP enzymes in rat liver microsomes (RLM)
MEASUREMENT_DESCRIPTION: Inhibition of 20-HETE production in rat liver microsomes (RLM)
Type: biochemical
MEASURED_PARAMETER: IC50 (nM)

COMPOUND: O=C1CCC(C(=O)N2CCC(c3ccc(-c4cn[nH]c4)c(F)c3F)CC2)CC1
SYSTEM_UNDER_TEST: CYP enzymes in rat liver microsomes (RLM)
IC50 (nM): 33.4

COMPOUND: O=C1CCCCN1CC1CCN(c2c(F)cc(-c3cn[nH]c3)cc2F)CC1
SYSTEM_UNDER_TEST: CYP enzymes in rat liver microsomes (RLM)
IC50 (nM): 23.3

COMPOUND: O=C(CCCCCc1ccccc1)NCC1CCN(c2ccc(-c3cn[nH]c3)cc2)CC1
SYSTEM_UNDER_TEST: CYP enzymes in rat liver microsomes (RLM)
IC50 (nM): 15.5

COMPOUND: O=C(C1CCCC1)N1CCC(c2ccc(-c3cn[nH]c3)c(F)c2F)CC1
SYSTEM_UNDER_TEST: CYP enzymes in rat liver microsomes (RLM)
IC50 (nM): 9.68

COMPOUND: O=C(C1CCCC1)N1CCC(c2ccc(-c3cn[nH]c3)cc2)CC1
SYSTEM_UNDER_TEST: CYP enzymes in rat liver microsomes (RLM)
IC50 (nM): 4.9

[1] O=C(NCC1CCN(c2ccc(-c3cn[nH]c3)cc2)CC1)C1CCCC1
[2] O=C1CCCN1CC1CCN(c2ccc(-c3cn[nH]c3)cc2F)CC1
Req: Which has the higher IC50, 1 or 2 ? Answer by stating the label of the chosen item.
Resp: 1

[a] O=C1CCCN1CC1CCN(c2ccc(-c3cn[nH]c3)c(F)c2)CC1
[b] O=C(Nc1ccc(F)cc1)C1CCN(c2ccc(-c3cn[nH]c3)cc2)CC1
[c] O=C(C1CCN(c2ccc(-c3cn[nH]c3)cc2)CC1)N1CCCC1
Req: Exam item: list the entries in increasing order of IC50. Would you mind listing the labels in the order asked for?
Resp: b, a, c

---

MEASUREMENT_DESCRIPTION: Pharmacokinetic (PK) experiment, oral administration in rats
Format: in vivo, Male SD rats
MEASUREMENT_CONTEXT: male, SD, rat, plasma, 20 mg/kg
MEASURED_PARAMETER: half-life (h)

MOLECULE: O=C(N1CC=C(c2ccc(-c3cn[nH]c3)c(F)c2F)CC1)N1CCCC1 [Compound 91]
MEASURED_PARAMETER: half-life
ENDPOINT_VALUE: 2.22

[A] O=C1CCCN1CC1CCN(c2c(F)cc(-c3cn[nH]c3)cc2F)CC1 [Compound 5]
[B] O=C(C1CCCC1)N1CCC(c2ccc(-c3cn[nH]c3)c(F)c2F)CC1 [Compound 98]
Req: Of the two listed items, A and B , which carries the larger half-life figure? When you have decided, please share the label of that item.
Resp: A

---

MEASUREMENT_DESCRIPTION: Pharmacokinetic (PK) experiment, oral administration in rats
Assay type: in vivo, Male SD rats
MEASUREMENT_CONTEXT: male, SD, rat, plasma, 20 mg/kg
MEASURED_PARAMETER: AUC(0-inf) (ng·h/mL)

Study these solved cases before continuing.
COMPOUND: O=C(C1CCN(c2ccc(-c3cn[nH]c3)cc2)CC1)N1Cc2ccccc2C1 [Compound 66]
ENDPOINT_VALUE: 486000
--
COMPOUND: O=C(N1CC=C(c2ccc(-c3cn[nH]c3)c(F)c2F)CC1)N1CCCC1 [Compound 91]
ENDPOINT_VALUE: 107000
--
COMPOUND: O=C1CCCCN1CC1CCN(c2ccc(-c3cn[nH]c3)c(F)c2F)CC1 [Compound 26]
ENDPOINT_VALUE: 40500
--
COMPOUND: O=C1CCCN1CC1CCN(c2ccc(-c3cn[nH]c3)cc2F)CC1 [Compound 2]
ENDPOINT_VALUE: 120000
--
COMPOUND: O=S1(=O)CCCCN1CC1CCN(c2ccc(-c3cn[nH]c3)cc2F)CC1 [Compound 163]
ENDPOINT_VALUE: 44700
--
COMPOUND: O=C1CCCN1CC1CCN(c2ccc(-c3cn[nH]c3)c(F)c2F)CC1 [Compound 4]
ENDPOINT_VALUE: 59000
--
COMPOUND: O=C(C1CCCC1)N1CCC(c2ccc(-c3cn[nH]c3)c(F)c2F)CC1 [Compound 98]
ENDPOINT_VALUE: 98600
--
COMPOUND: O=C(N1CCCC1)N1CCC(c2ccc(-c3cn[nH]c3)c(F)c2F)CC1 [Compound 71]
ENDPOINT_VALUE: 58000
--
COMPOUND: O=C(C1CCN(c2ccc(-c3cn[nH]c3)cc2F)CC1)N1CC2CCCC2C1 (stereo not drawn) [Compound 153]
ENDPOINT_VALUE: 566000
--
COMPOUND: O=C1CCCN1Cc1ccc(C2CCN(c3cn[nH]c3)CC2)cc1 [Reference 83, reference compound]
ENDPOINT_VALUE: 2640

[A] O=C(N1CCCC1)N1CCN(c2ccc(-c3cn[nH]c3)c(F)c2F)CC1 [Compound 72]
[B] O=C1CCCN1CC1CCN(c2c(F)cc(-c3cn[nH]c3)cc2F)CC1 [Compound 5]
Req: Name the one with the greater AUC(0-inf) value, either A or B as given. Refer to your chosen item by its label in the answer.
Resp: B
(B: 124000 ng·h/mL, A: 86000 ng·h/mL)

[I] O=C(CCCCCc1ccccc1)NCC1CCN(c2ccc(-c3cn[nH]c3)cc2)CC1 [Compound 113]
[II] O=C(C1CCCC1)N1CCC(c2ccc(-c3cn[nH]c3)cc2)CC1 [Compound 70]
Req: Would you mind telling me which has the lower recorded AUC(0-inf) between I and II ? # respond with the chosen item's label
Resp: I
